# TESTED TARGET: androgen receptor (AR-LBD) (Rattus norvegicus, UniProt P15207)
# Construct: 5 μL of 2×AR-LBD/Fluoromone AL Red Complex contained in the kit; purchased Invitrogen
# Sequence (P15207 651-882 limits assumed): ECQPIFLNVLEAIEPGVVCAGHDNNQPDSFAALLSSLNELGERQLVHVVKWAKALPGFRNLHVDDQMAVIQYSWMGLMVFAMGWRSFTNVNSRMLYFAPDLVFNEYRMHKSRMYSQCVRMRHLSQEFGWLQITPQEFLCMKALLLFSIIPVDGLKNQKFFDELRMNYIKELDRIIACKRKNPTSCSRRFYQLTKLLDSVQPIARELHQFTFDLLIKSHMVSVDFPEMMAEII
# PROTOCOL: Evaluation of androgen receptor affinity (PolarScreen Androgen Receptor Competitor Assay Kit, Red; fluorescence polarization)
# MEASUREMENT PARAMETERS: 22° C. for 5 hours, relative to binding rate of 1 μM DHT, read-out: AR affinity (pEC50) (converted)
The following compounds are listed with their measured EC50 values.
State the answer as a number, implicitly in nM.

Below, 2 compounds whose answers are already recorded.
CO[C@@H]1CCC[C@H](CN(c2ccc(C#N)cc2)c2nc(C(=O)NS(C)(=O)=O)c(C)s2)C1 (racemic) :: 501
Cc1sc(N(Cc2ccccc2)c2ccc(C#N)c(C(F)(F)F)c2)nc1C(=O)NS(C)(=O)=O :: 25.1

Tested on androgen receptor (AR-LBD) (Rattus norvegicus, UniProt P15207): CS(=O)(=O)NC(=O)c1nc(N(Cc2ccc(Br)cn2)c2ccc(C#N)cc2)sc1Br . Observed EC50: 79.4

Tested on androgen receptor (AR-LBD) (Rattus norvegicus, UniProt P15207): CCc1oc(N(Cc2ccc(OC(F)(F)F)cc2)c2ccc(C#N)cc2)nc1C(=O)NS(C)(=O)=O . Observed EC50: 39.8

Tested on androgen receptor (AR-LBD) (Rattus norvegicus, UniProt P15207): CS(=O)(=O)NC(=O)c1nc(N(Cc2cccc(Cl)c2)c2ccc(C#N)cc2)sc1Cl . Observed EC50: 50.1

Tested on androgen receptor (AR-LBD) (Rattus norvegicus, UniProt P15207): Cc1sc(N(C[C@H]2CCC[C@@H](CO)C2)c2ccc(C#N)cc2)nc1C(=O)NS(C)(=O)=O (racemic) . Observed EC50: 1260

* * *

# TESTED TARGET: human androgen receptor (Homo sapiens, UniProt P10275)
# Construct: expressed in transfected cells; host or cells: HEK293
# Sequence (P10275 whole entry): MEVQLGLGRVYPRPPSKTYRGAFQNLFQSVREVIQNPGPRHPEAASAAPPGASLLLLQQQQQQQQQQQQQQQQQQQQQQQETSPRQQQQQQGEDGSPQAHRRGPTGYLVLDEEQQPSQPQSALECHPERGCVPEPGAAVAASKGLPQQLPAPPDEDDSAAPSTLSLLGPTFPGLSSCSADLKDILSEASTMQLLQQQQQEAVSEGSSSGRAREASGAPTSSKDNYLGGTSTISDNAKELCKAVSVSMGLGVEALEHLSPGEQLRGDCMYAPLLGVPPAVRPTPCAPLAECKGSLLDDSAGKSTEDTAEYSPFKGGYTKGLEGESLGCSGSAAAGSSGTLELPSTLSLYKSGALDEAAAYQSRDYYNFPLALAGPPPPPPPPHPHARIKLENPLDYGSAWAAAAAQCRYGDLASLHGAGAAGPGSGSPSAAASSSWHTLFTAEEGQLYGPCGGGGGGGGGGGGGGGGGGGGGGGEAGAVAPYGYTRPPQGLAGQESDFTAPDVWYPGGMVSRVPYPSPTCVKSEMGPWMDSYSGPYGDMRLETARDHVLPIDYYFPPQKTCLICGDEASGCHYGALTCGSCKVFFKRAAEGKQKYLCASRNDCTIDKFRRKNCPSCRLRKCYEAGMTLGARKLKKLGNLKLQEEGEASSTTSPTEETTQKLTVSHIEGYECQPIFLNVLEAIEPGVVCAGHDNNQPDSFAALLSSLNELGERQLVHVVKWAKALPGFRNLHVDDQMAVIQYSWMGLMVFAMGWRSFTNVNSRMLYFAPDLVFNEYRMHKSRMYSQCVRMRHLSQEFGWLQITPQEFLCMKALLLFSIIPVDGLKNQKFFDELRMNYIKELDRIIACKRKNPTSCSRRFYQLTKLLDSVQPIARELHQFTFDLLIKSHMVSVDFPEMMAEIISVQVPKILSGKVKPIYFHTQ
# PROTOCOL: Reporter assay of an androgen receptor responsive sequence (luciferase, transiently transfected HEK293 cells)
# Format: cell-based
# MEASUREMENT PARAMETERS: 24 hours incubation, relative to activity of 100 nM DHT, read-out: AR transcriptive activity (pEC50) (converted)
# Protocol: Reporter Assay of an Androgen Receptor Responsive Sequence To examine the agonist activity of compounds for androgen, a reporter assay using an androgen receptor responsive sequence was conducted. Using Lipofectamine 2000 (Invitrogen), a plasmid mixture (pGL4-ARE (200 ng/well), pcDNA3-hAR (20 ng/well), pRL-TK (Promega) (150 ng/well)) was transiently transfected into HEK293 cells. The contents of the plasmid (mixture) are as follows: […]
The following compounds are listed with their measured EC50 values.

Below, 4 compounds whose answers are already recorded.
Cc1sc(N(CCc2ccc(OC(F)(F)F)cc2)Cc2ccccc2)nc1C(=O)NS(C)(=O)=O :: 0.251 µM
COCCCS(=O)(=O)NC(=O)c1nc(N(Cc2ccc(OC(F)F)nc2)c2ccc(C#N)cc2)sc1C :: 0.631 µM
CCS(=O)(=O)NC(=O)c1nc(N(CCc2ccc(C#N)cc2)Cc2ccc(OC(F)(F)F)cc2)sc1C :: 1 µM
Cc1oc(N(Cc2ccc(Br)cc2)c2ccc(C#N)cc2)nc1C(=O)NS(C)(=O)=O :: 0.2 µM

Tested on human androgen receptor (Homo sapiens, UniProt P10275): COc1c(F)ccc(CN(c2ccc(C#N)cc2)c2nc(C(=O)NS(C)(=O)=O)c(C)s2)c1F . Observed EC50: 0.0631 µM

Tested on human androgen receptor (Homo sapiens, UniProt P10275): Cc1sc(N(Cc2ccc(OC(F)F)c(Cl)c2)c2ccc(C#N)cc2)nc1C(=O)NS(C)(=O)=O . Observed EC50: 0.0398 µM

Tested on human androgen receptor (Homo sapiens, UniProt P10275): Cc1cc(CN(CCc2ccc(OC(F)(F)F)cc2)c2nc(C(=O)NS(C)(=O)=O)c(C)s2)no1 . Observed EC50: > 10 µM

Tested on human androgen receptor (Homo sapiens, UniProt P10275): Cc1sc(N(Cc2cc(F)ccc2F)c2ccc(C#N)cc2)nc1C(=O)NS(C)(=O)=O . Observed EC50: 0.316 µM

Tested on human androgen receptor (Homo sapiens, UniProt P10275): Cc1sc(N(Cc2ccc3occc3c2)c2ccc(C#N)cc2)nc1C(=O)NS(C)(=O)=O . Observed EC50: 0.0251 µM

Tested on human androgen receptor (Homo sapiens, UniProt P10275): Cc1sc(N(CC(=O)c2ccccc2)Cc2ccccc2)nc1C(=O)NS(C)(=O)=O . Observed EC50: 5.01 µM

Tested on human androgen receptor (Homo sapiens, UniProt P10275): CS(=O)(=O)NC(=O)c1nc(N(Cc2ccccc2OC(F)F)c2ccc(C#N)cc2)sc1Br . Observed EC50: 0.158 µM

Tested on human androgen receptor (Homo sapiens, UniProt P10275): COc1cccc(CN(CCc2ccc(Cl)cc2)c2nc(C(=O)NS(C)(=O)=O)c(C)s2)n1 . Observed EC50: 0.794 µM

Tested on human androgen receptor (Homo sapiens, UniProt P10275): Cc1sc(N(CCc2ccc(F)cc2)Cc2ccccc2)nc1C(=O)NS(C)(=O)=O . Observed EC50: 0.251 µM

Tested on human androgen receptor (Homo sapiens, UniProt P10275): Cc1sc(N(Cc2cccc(OC(F)F)c2)c2ccc(C#N)cc2)nc1C(=O)NS(C)(=O)=O . Observed EC50: 0.0631 µM

Tested on human androgen receptor (Homo sapiens, UniProt P10275): Cc1sc(N(CCc2ccc(C#N)cc2)CC2CCCCC2)nc1C(=O)NS(=O)(=O)Cc1cccnc1 . Observed EC50: > 10 µM

Tested on human androgen receptor (Homo sapiens, UniProt P10275): Cc1sc(N(CCc2ccccc2)c2ccc(C#N)cc2)nc1C(=O)NS(C)(=O)=O . Observed EC50: 2.51 µM

* * *

# TESTED TARGET: androgen receptor (AR-LBD) (Rattus norvegicus)
# Construct: 5 μL of 2×AR-LBD/Fluoromone AL Red Complex contained in the kit; purchased Invitrogen
# Sequence (P15207 651-882 limits assumed): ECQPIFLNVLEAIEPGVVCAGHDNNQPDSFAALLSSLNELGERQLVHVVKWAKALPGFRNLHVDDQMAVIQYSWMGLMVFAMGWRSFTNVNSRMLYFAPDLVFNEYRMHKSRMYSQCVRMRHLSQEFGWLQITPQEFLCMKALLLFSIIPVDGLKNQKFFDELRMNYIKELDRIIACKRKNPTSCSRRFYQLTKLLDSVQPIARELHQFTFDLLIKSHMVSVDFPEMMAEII
# PROTOCOL: Evaluation of androgen receptor affinity (PolarScreen Androgen Receptor Competitor Assay Kit, Red; fluorescence polarization)
# MEASUREMENT PARAMETERS: 22° C. for 5 hours, relative to binding rate of 1 μM DHT, read-out: AR affinity (pEC50) (converted)
The following molecules are listed with their measured EC50 values.
Mention the unit after the number when you answer.

Below, 3 molecules whose answers are already recorded.
Cc1sc(N(CCOC(C)C)c2ccc(C#N)cc2)nc1C(=O)NS(C)(=O)=O [Compound 449] :: 398 nM
CCS(=O)(=O)NC(=O)c1nc(N(CCc2ccc(Cl)cc2)Cc2ccc(OC(F)(F)F)cc2)sc1C [Compound 701] :: 63.1 nM
CC[C@H](C)CN(c1ccc(C#N)cc1)c1nc(C(=O)NS(C)(=O)=O)c(C)s1 [Compound 446] :: 316 nM

For the next question, use this molecule.
Please fill in: EC50 reported for Cc1sc(N(Cc2ccc(OC(F)F)cn2)c2ccc(C#N)cc2)nc1C(=O)NS(C)(=O)=O [Compound 511] = 158 nM

* * *

# TESTED TARGET: human androgen receptor (Homo sapiens, UniProt P10275)
# Construct: expressed in transfected cells; host or cells: HEK293
# PROTOCOL: Reporter assay of an androgen receptor responsive sequence (luciferase, transiently transfected HEK293 cells)
# Assay type: cell-based
# MEASUREMENT PARAMETERS: 24 hours incubation, relative to activity of 100 nM DHT, read-out: AR transcriptive activity (pEC50) (converted)
The following compounds are listed with their measured log10 EC50 values.
Scale type: logarithmic (base 10). Underlying EC50 unit: nM.

Below, 5 compounds whose answers are already recorded.
Cc1sc(N(Cc2ccc3c(c2)C(O)CCO3)c2ccc(C#N)cc2)nc1C(=O)NS(C)(=O)=O (stereo not shown) :: 2.40
Cc1oc(N(CCc2ccc(Cl)cc2)Cc2ccccc2OC(F)F)nc1C(=O)NS(C)(=O)=O :: 3.10
Cc1sc(N(Cc2ccc3c(c2)OCO3)c2ccc(C#N)cc2)nc1C(=O)NS(C)(=O)=O :: 2.00
Cc1sc(N(Cc2cc(F)c(F)c(F)c2)c2ccc(C#N)cc2)nc1C(=O)NS(C)(=O)=O :: 2.10
Cc1sc(N(Cc2ccc(-c3ccccc3F)cc2)c2ccc(C#N)cc2)nc1C(=O)NS(C)(=O)=O :: 2.20

Please fill in: log10 EC50 reported for COCCCS(=O)(=O)NC(=O)c1nc(N(Cc2ccc(Br)cc2)c2ccc(C#N)cc2)sc1C = 1.70

Please fill in: log10 EC50 reported for CSc1ccccc1CN(c1ccc(C#N)cc1)c1nc(C(=O)NS(C)(=O)=O)c(C)s1 = 2.30

Please fill in: log10 EC50 reported for Cc1sc(N(CCC2CC3CCC2C3)c2ccc(C#N)cc2)nc1C(=O)NS(C)(=O)=O (stereo not shown) = 2.20

Please fill in: log10 EC50 reported for Cc1sc(N(Cc2cccc(-n3cccn3)c2)c2ccc(C#N)cc2)nc1C(=O)NS(C)(=O)=O = 3.20

Please fill in: log10 EC50 reported for COCCCS(=O)(=O)NC(=O)c1nc(N(Cc2ccc(Cl)c(Cl)c2)c2ccc(C#N)cc2)sc1C = 1.80

Please fill in: log10 EC50 reported for Cc1sc(N(Cc2cccc3ccccc23)c2ccc(C#N)cc2)nc1C(=O)NS(C)(=O)=O = 2.90

Please fill in: log10 EC50 reported for Cc1sc(N(Cc2ccccc2)c2ccc(Cl)cc2)nc1C(=O)NS(C)(=O)=O = 3.40

Please fill in: log10 EC50 reported for COC[C@H](C)Oc1ccc(CN(c2ccc(C#N)cc2)c2nc(C(=O)NS(C)(=O)=O)c(C)s2)cc1 = 3.50

Please fill in: log10 EC50 reported for Cc1sc(N(Cc2ccccc2)c2ccc(OC(F)F)cc2)nc1C(=O)NS(C)(=O)=O = 3.20

Please fill in: log10 EC50 reported for Cc1oc(N(CCc2ccc(Cl)cc2)CC[C@@H]2CCCC[C@H]2O)nc1C(=O)NS(C)(=O)=O (racemic) = 3.40

Please fill in: log10 EC50 reported for CS(=O)(=O)NC(=O)c1nc(N(Cc2cccc(F)c2)c2ccc(C#N)cc2)sc1Cl = 2.00

Please fill in: log10 EC50 reported for Cc1sc(N(Cc2ccc(OCCCO)cc2)c2ccc(C#N)cc2)nc1C(=O)NS(C)(=O)=O = 3.90

Please fill in: log10 EC50 reported for Cc1sc(N(Cc2ccc(F)c(F)c2)c2ccc(C#N)cc2)nc1C(=O)NS(C)(=O)=O = 1.50

Please fill in: log10 EC50 reported for Cc1oc(N(Cc2ccccc2)c2ccc(C#N)cc2)nc1C(=O)NS(C)(=O)=O = 3.30

Please fill in: log10 EC50 reported for Cc1sc(N(CCC2CCCC2O)c2ccc(C#N)cc2)nc1C(=O)NS(C)(=O)=O (stereo not shown) = 3.40
